meta.source: patent US20140154255A1

Target: T1, human VEGF-A residues 27-191 of Accession #AAV38412 (human, UniProt P15692 27-191)
T1 construct: range 27-191
T1 sequence (P15692 other isoform, or with tags, fused parts or gaps limits assumed): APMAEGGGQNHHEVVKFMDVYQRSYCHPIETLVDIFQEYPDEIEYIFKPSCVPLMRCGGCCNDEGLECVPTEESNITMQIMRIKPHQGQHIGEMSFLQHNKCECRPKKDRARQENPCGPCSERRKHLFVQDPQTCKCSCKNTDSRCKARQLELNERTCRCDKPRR
Test: BIAcore SPR
recorded-endpoint: Kd (nM)
Kindly provide the numeric value in nM only, without the unit symbol.

These recorded examples may help you get a feel for the data.
Look at this binder and give its reported Kd. T30 K (anti-VEGF IgG) (antibody, V domains shown, copies: 2 + 2) VH: EVQLVESGGGLVQPGGSLRLSCAASGYTFKNYGMNWVRQAPGKGLEWVGWINTYTGEPTYAADFKRRFTFSLDTSKSTAYLQMNSLRAEDTAVYYCAKYPHYYGSSHWYFDVWGQGTLVTVSS VL: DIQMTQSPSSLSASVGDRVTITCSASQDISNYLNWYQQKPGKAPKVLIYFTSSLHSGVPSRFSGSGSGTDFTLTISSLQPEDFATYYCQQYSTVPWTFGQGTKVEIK
0.92

Lookup H97 A (anti-VEGF IgG) (antibody, V domains shown, copies: 2 + 2) VH: EVQLVESGGGLVQPGGSLRLSCAASGYTFTNYGMNWVRQAPGKGLEWVGWINTYTGEPTYAADFKRRFTFSLDTSKSTAYLQMNSLRAEDTAVYYCAKYPAYYGSSHWYFDVWGQGTLVTVSS VL: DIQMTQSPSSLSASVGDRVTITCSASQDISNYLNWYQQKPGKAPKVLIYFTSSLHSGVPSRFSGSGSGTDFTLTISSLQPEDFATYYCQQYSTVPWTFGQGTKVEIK
2.2

And for N31 L (anti-VEGF IgG) (antibody, V domains shown, copies: 2 + 2) VH: EVQLVESGGGLVQPGGSLRLSCAASGYTFTLYGMNWVRQAPGKGLEWVGWINTYTGEPTYAADFKRRFTFSLDTSKSTAYLQMNSLRAEDTAVYYCAKYPHYYGSSHWYFDVWGQGTLVTVSS VL: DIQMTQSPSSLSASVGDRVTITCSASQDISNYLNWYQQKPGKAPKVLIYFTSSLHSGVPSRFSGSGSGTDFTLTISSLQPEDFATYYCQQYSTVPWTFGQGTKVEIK ?
0.278

Another: S100a A (anti-VEGF IgG) (antibody, V domains shown, copies: 2 + 2) VH: EVQLVESGGGLVQPGGSLRLSCAASGYTFTNYGMNWVRQAPGKGLEWVGWINTYTGEPTYAADFKRRFTFSLDTSKSTAYLQMNSLRAEDTAVYYCAKYPHYYGASHWYFDVWGQGTLVTVSS VL: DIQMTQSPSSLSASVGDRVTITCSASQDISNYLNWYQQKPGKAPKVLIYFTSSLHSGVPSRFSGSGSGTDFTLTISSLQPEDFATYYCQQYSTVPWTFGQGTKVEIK
0.337

// next entry
Value lookup for Kd; key = 93 (antibody, human IgG1, V domains shown) VH: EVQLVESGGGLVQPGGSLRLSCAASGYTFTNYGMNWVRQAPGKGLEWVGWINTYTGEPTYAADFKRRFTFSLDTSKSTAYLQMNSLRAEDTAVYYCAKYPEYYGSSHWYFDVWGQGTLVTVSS VL: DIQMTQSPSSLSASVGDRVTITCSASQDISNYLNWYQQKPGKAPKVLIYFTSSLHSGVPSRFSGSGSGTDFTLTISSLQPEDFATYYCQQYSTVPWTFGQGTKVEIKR
1.59
